Target: SBC2 (Homo sapiens, UniProt O14508)
Construct: SOCS2 (amino acids 32–198); His6 (N, cleaved yes); made in house; host or cells: E. coli BL21(DE3)
Sequence (O14508 32-198): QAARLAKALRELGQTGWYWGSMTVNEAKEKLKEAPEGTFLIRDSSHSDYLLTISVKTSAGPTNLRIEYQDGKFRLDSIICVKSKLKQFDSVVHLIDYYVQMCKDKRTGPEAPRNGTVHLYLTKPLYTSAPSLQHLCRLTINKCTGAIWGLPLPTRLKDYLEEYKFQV
Sequence (Q15370 1-104 partner limits assumed): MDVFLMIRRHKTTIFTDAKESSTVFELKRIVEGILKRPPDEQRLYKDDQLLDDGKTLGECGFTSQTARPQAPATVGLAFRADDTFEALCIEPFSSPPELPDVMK
Sequence (Q15369 17-112 partner limits assumed): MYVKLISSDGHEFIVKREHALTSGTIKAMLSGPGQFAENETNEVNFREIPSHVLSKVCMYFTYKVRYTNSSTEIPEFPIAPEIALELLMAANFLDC
Assay: Isothermal titration calorimetry (ITC), direct titration
Type: binding
Conditions: ITC KD, direct ITC, 298 K
Friendly reminder: Kd below 1000 nM is y, at or above is n.

Study these solved cases before continuing.
compound-structure	assigned-label
O=C(CCl)Nc1cccc(CNC(=O)[C@H](Cc2ccc(OP(=O)(O)O)cc2)NC(=O)Cc2ccc(F)cc2)c1	n
Cc1cccc(CNC(=O)[C@H](Cc2ccc(OP(=O)(O)O)cc2)NC(=O)Cc2ccc(F)cc2)c1	n
C=CCc1cc(CNC(=O)[C@H](Cc2ccc(OP(=O)(O)O)cc2)NC(=O)Cc2ccc(F)cc2)ccc1F	y
C=CCc1cccc(CNC(=O)[C@H](Cc2ccc(OP(=O)(O)O)cc2)NC(=O)Cc2ccc(F)cc2)c1	y

Now consider the entry below.
INPUT: Dear reviewer, please state whether O=C(Cc1ccc(F)cc1)N[C@@H](Cc1ccc(OP(=O)(O)O)cc1)C(=O)NCc1ccc(F)cc1 has Kd strictly beneath 1000 nM.
OUTPUT: n
